Reference for the values: the DeepSol protein solubility set

Assay: soluble on expression in E. coli; label from the status in PepcDB or PDB records
QUANTITY KIND: soluble on expression in E. coli

ITLAVKVGMIQLCGCSGCHISLLDLHDKLLEVLPNLEIVYAPIIADPKEIPEGIDVFLVEGGIRNEHDEHLIHEIREKSKIVIAWGTCAAYGGIPGLGNLYKKEELLNYVYSTDSTENKGEIPSEEIPPLEEYVKPIKDFIKVDYTIPGCPPTPKMIADAIIALLNGEEPKLPTKIVC ... not soluble
GSLILDGDLLKDKLKLPVIDNLFGKELLDKFQDDIKDKYGVDTKDLKILKTSEDKRFYYVSVDAGDGEKCKFKIRKDVDVPKMVGRKCRKDDDDDDGY ... soluble
MGSDKIHHHHHHMQDCDVRIFYIFKSLYDSGSATFVSQQHSVSPSKVSRYIAEMREVYNDSLFIRRKTHFVPTKKAREIYPKICEIIELIEGLSANRHELEVKKECVIAVPATLCVGLPEHLNRVIKQEGLDISLKVMSSHREICTKVINGEICIAITNRACTQTMDCNPKHSNLLHVEPISVGEHVYVVSAATGAIWQEKISLDNIAKYPFVVTQVSGFNDEKDPFEVYCEQRGLALNVFLKTQNLASMIEALMSENTISFIGPNSAAAFIAKVPSLRVEKLENCEYQRLHEAMHKPTYSMIYLKRNIDVIPPLIKSEVLRFISDSVCDF ... not soluble
MVAGFTVHSGPHHVPHRDMTHHSRPPGHAPRVTILMPVYNGEKYLAAAMESILDQTFRDFILLIIDDGSSDSSLAIARSFGDPRVQVERNPKNLGLVKTLNRGLDLVQTEFVARMDCDDIALPDRLEKQIAFLDENPDIGMCGTAYELFHESLRQTIRPPCRHEEIVYGLLDDNVFLHSSVIVRMEVLNRHGLRYREDYRLAEDYELWARLARYTHIGNLPQVLVRYRSHPENVSNTNKGEQIATRDRVRLEHLESFGLAPAADQKTLHIDLFSLAFQGSPDQLADARRWLEALARAVSTRCGLPLGRLHRDFALLWYSACGRSAHHGLTVLFSYLKSAMAWKGPKSYILKLLFRCLMRDPIPAVTK ... not soluble

Q: Report soluble on expression in E. coli for NNEIMPGKMKVKATKGEGDGGITSEGNALYNNEGGRAFMYAYVTTKPGMKYVKWEHDSGVVTVELEPPCRFVIDTPTGPQIKYLYFVKNLNNLRRGAVLGYIGATVRLQ please.
A: soluble
